- System: P. aeruginosa ATTC 27853
- Format: cell-based, Pseudomonas aeruginosa
- particulars: P. aeruginosa ATTC 27853; microdilution in CAMHB, 18 h at 35° C.
Would you kindly list Minimal inhibitory concentration (MIC) for each of these molecules?
Lab book: enter the figure in μM/L, no units written.

Exercise: Can you look up the measured Minimal inhibitory concentration (MIC) of NCCCC[C@H](NC(=O)OCc1ccccc1Cl)C(=O)NCCNC(=O)CCN(CCC(=O)NCCNC(=O)[C@H](CCCCN)NC(=O)OCc1ccccc1Cl)CC[C@@H](C(=O)NCCc1c[nH]c2ccccc12)N(CCC(=O)NCCNC(=O)[C@H](CCCCN)NC(=O)OCc1ccccc1Cl)CCC(=O)NCCNC(=O)[C@H](CCCCN)NC(=O)OCc1ccccc1Cl [Compound 94] for me?
Solution: 70

Exercise: Fill in: Minimal inhibitory concentration (MIC) of N[C@@H](CCCCNC(=O)OCc1ccccc1Cl)C(=O)NCCNC(=O)CCN(CCC(=O)NCCNC(=O)[C@@H](N)CCCCNC(=O)OCc1ccccc1Cl)C[C@@H](C(=O)NCCc1c[nH]c2ccccc12)N(CCC(=O)NCCNC(=O)[C@@H](N)CCCCNC(=O)OCc1ccccc1Cl)CCC(=O)NCCNC(=O)[C@@H](N)CCCCNC(=O)OCc1ccccc1Cl [Compound 99] is ___
Solution: 52

* * *

- System: P. aeruginosa ATTC 27853
- Format: cell-based, Pseudomonas aeruginosa
- particulars: P. aeruginosa ATTC 27853; microdilution in CAMHB, 18 h at 35° C.
value-kind: Minimal inhibitory concentration (MIC) (μM/L)
Give just the number in μM/L; leave the unit off.

Exercise: I'm curious: which Minimal inhibitory concentration (MIC) was measured for N[C@@H](CCCCNC(=O)OCc1ccccc1)C(=O)NCCNC(=O)CCN(CCCC[C@@H](C(=O)NCCc1c[nH]c2ccccc12)N(CCC(=O)NCCNC(=O)[C@@H](N)CCCCNC(=O)OCc1ccccc1)CCC(=O)NCCNC(=O)[C@@H](N)CCCCNC(=O)OCc1ccccc1)CCC(=O)NCCNC(=O)[C@@H](N)CCCCNC(=O)OCc1ccccc1 [Compound 103] tested on P. aeruginosa ATTC 27853?
Solution: 149

Exercise: API: value(readout=Minimal inhibitory concentration (MIC), system=P. aeruginosa ATTC 27853) for record NCCCC[C@H](NC(=O)OCc1ccccc1Cl)C(=O)NCCNC(=O)CCN(CCC[C@@H](C(=O)NCCc1c[nH]c2ccccc12)N(CCC(=O)NCCNC(=O)[C@H](CCCCN)NC(=O)OCc1ccccc1Cl)CCC(=O)NCCNC(=O)[C@H](CCCCN)NC(=O)OCc1ccccc1Cl)CCC(=O)NCCNC(=O)[C@H](CCCCN)NC(=O)OCc1ccccc1Cl [Compound 96]
Solution: 51

Exercise: Report Minimal inhibitory concentration (MIC) for NCCCC[C@H](NC(=O)OCc1ccccc1Cl)C(=O)NCCNC(=O)CCN(CCCC[C@@H](C(=O)NCCc1c[nH]c2ccccc12)N(CCC(=O)NCCNC(=O)[C@H](CCCCN)NC(=O)OCc1ccccc1Cl)CCC(=O)NCCNC(=O)[C@H](CCCCN)NC(=O)OCc1ccccc1Cl)CCC(=O)NCCNC(=O)[C@H](CCCCN)NC(=O)OCc1ccccc1Cl [Compound 100] tested on P. aeruginosa ATTC 27853.
Solution: 41

* * *

- Tested on: P. aeruginosa ATTC 27853
- Format: cell-based, Pseudomonas aeruginosa
- particulars: P. aeruginosa ATTC 27853; microdilution in CAMHB, 18 h at 35° C.
Assignment: determine reported Minimal inhibitory concentration (MIC) for the given compounds.
// note: answer is a bare numeric in μM/L

Exercise: Request the reported Minimal inhibitory concentration (MIC) associated with NC[C@H](NC(=O)OCc1ccccc1)C(=O)NCCNC(=O)CCN(CCCC[C@@H](C(=O)NCCc1c[nH]c2ccccc12)N(CCC(=O)NCCNC(=O)[C@H](CN)NC(=O)OCc1ccccc1)CCC(=O)NCCNC(=O)[C@H](CN)NC(=O)OCc1ccccc1)CCC(=O)NCCNC(=O)[C@H](CN)NC(=O)OCc1ccccc1 [Compound 105]
Solution: 81

Exercise: Requested read-out: Minimal inhibitory concentration (MIC). Entry: N[C@@H](CCCCNC(=O)OCc1ccccc1Cl)C(=O)NCCNC(=O)CCN(CCC(=O)NCCNC(=O)[C@@H](N)CCCCNC(=O)OCc1ccccc1Cl)CC[C@@H](C(=O)NCCc1c[nH]c2ccccc12)N(CCC(=O)NCCNC(=O)[C@@H](N)CCCCNC(=O)OCc1ccccc1Cl)CCC(=O)NCCNC(=O)[C@@H](N)CCCCNC(=O)OCc1ccccc1Cl [Compound 95]
Solution: 51

Exercise: Given the entry NCCCC[C@H](NC(=O)OCc1ccccc1Cl)C(=O)NCCNC(=O)CCN(CCC(=O)NCCNC(=O)[C@H](CCCCN)NC(=O)OCc1ccccc1Cl)C[C@@H](C(=O)NCCc1c[nH]c2ccccc12)N(CCC(=O)NCCNC(=O)[C@H](CCCCN)NC(=O)OCc1ccccc1Cl)CCC(=O)NCCNC(=O)[C@H](CCCCN)NC(=O)OCc1ccccc1Cl [Compound 98] , report its measured Minimal inhibitory concentration (MIC).
Solution: 52

* * *

So I've got a bunch of molecules here, and I need their Minimal inhibitory concentration (MIC) values.
- Test system: P. aeruginosa ATTC 27853
- Assay type: cell-based, Pseudomonas aeruginosa
- particulars: P. aeruginosa ATTC 27853; microdilution in CAMHB, 18 h at 35° C.
Reply with just the number (in μM/L).

Exercise: Checklist item: Minimal inhibitory concentration (MIC) tested on P. aeruginosa ATTC 27853, entry N[C@@H](CCCCNC(=O)OCc1ccccc1Cl)C(=O)NCCNC(=O)CCN(CCC[C@@H](C(=O)NCCc1c[nH]c2ccccc12)N(CCC(=O)NCCNC(=O)[C@@H](N)CCCCNC(=O)OCc1ccccc1Cl)CCC(=O)NCCNC(=O)[C@@H](N)CCCCNC(=O)OCc1ccccc1Cl)CCC(=O)NCCNC(=O)[C@@H](N)CCCCNC(=O)OCc1ccccc1Cl [Compound 97] , value?
Solution: 60

Exercise: Give the reported Minimal inhibitory concentration (MIC) for NCCCC[C@H](NC(=O)OCc1ccccc1Br)C(=O)NCCNC(=O)CCN(CCCC[C@@H](C(=O)NCCc1c[nH]c2ccccc12)N(CCC(=O)NCCNC(=O)[C@H](CCCCN)NC(=O)OCc1ccccc1Br)CCC(=O)NCCNC(=O)[C@H](CCCCN)NC(=O)OCc1ccccc1Br)CCC(=O)NCCNC(=O)[C@H](CCCCN)NC(=O)OCc1ccccc1Br [Compound 104] (system: P. aeruginosa ATTC 27853).
Solution: 64

Exercise: Lab request: please report Minimal inhibitory concentration (MIC) under test system P. aeruginosa ATTC 27853 for NCCC[C@H](NC(=O)OCc1ccccc1Cl)C(=O)NCCNC(=O)CCN(CCCC[C@@H](C(=O)NCCc1c[nH]c2ccccc12)N(CCC(=O)NCCNC(=O)[C@H](CCCN)NC(=O)OCc1ccccc1Cl)CCC(=O)NCCNC(=O)[C@H](CCCN)NC(=O)OCc1ccccc1Cl)CCC(=O)NCCNC(=O)[C@H](CCCN)NC(=O)OCc1ccccc1Cl [Compound 106]
Solution: 71

Exercise: Given the entry N[C@@H](CCCCNC(=O)OCc1ccccc1Cl)C(=O)NCCNC(=O)CCN(CCCC[C@@H](C(=O)NCCc1c[nH]c2ccccc12)N(CCC(=O)NCCNC(=O)[C@@H](N)CCCCNC(=O)OCc1ccccc1Cl)CCC(=O)NCCNC(=O)[C@@H](N)CCCCNC(=O)OCc1ccccc1Cl)CCC(=O)NCCNC(=O)[C@@H](N)CCCCNC(=O)OCc1ccccc1Cl [Compound 101] , what Minimal inhibitory concentration (MIC) was observed with P. aeruginosa ATTC 27853?
Solution: 51

// provenance: patent US8541365B2
